- Test system: Plasmodium falciparum
- measurementDescription: NOVARTIS: Inhibition of Plasmodium falciparum W2 (drug-resistant) proliferation in erythrocyte-based infection assay
- Type: functional, organism-based
- conditionSet: Plasmodium falciparum, W2; read-out: EC50
Would you kindly list EC50 for each of these compounds?

Incoming: Provide EC50, recorded with Plasmodium falciparum, of `COC(=O)[C@@H]1C[C@@H](NC(=O)c2ccc(OC)cc2)CN1CC(c1ccccc1)c1ccccc1`
Outgoing: < 25.7 nM

Incoming: Provide EC50, recorded with Plasmodium falciparum, of `CCOc1ccccc1NC(=O)C1C(c2ccccc2)=C1c1ccccc1`
Outgoing: > 1250 nM

Incoming: Provide EC50, recorded with Plasmodium falciparum, of `C=CCC1(Nc2ccccc2)CCCCC1`
Outgoing: > 1050 nM

Incoming: Provide EC50, recorded with Plasmodium falciparum, of CCOC(=O)NN=C1C=C2C=CC3C(CC[C@@]4(C)C3CC3CCCCC34C(C)=O)[C@@]2(C)CC1 (some centres undefined)
Outgoing: > 1560 nM

Incoming: Provide EC50, recorded with Plasmodium falciparum, of `C#CC(C)(C)NS(=O)(=O)c1cc(-c2nnc(Nc3cccc(C)c3)c3ccccc23)ccc1C`
Outgoing: > 1250 nM

Incoming: Provide EC50, recorded with Plasmodium falciparum, of Cc1cc(-c2cn[nH]c2C2CCCN(C(=O)Cc3ccccc3F)C2)on1 (centres undefined)
Outgoing: > 969 nM

Incoming: Provide EC50, recorded with Plasmodium falciparum, of `Cc1ccn2c(NC(C)(C)CC(C)(C)C)c(-c3ccccc3OC(=O)C(C)(C)C)nc2c1`
Outgoing: < 7.9 nM

Incoming: Provide EC50, recorded with Plasmodium falciparum, of `COc1ccc(N(C)C(=O)CNC(=O)c2nn(-c3ccc(OC)cc3OC)c(=O)c3ccccc23)cc1`
Outgoing: > 685 nM

Incoming: Provide EC50, recorded with Plasmodium falciparum, of CC(C)(C)NC(=O)C(c1ccncc1)N(Cc1ccccc1Cl)C(=O)c1ccc(-c2ccccc2)[nH]1 (centres undefined)
Outgoing: > 3990 nM

Incoming: Provide EC50, recorded with Plasmodium falciparum, of `O=[N+]([O-])c1cccc2c(S(=O)(=O)NCCCN(CCO)CCO)cccc12`
Outgoing: > 1550 nM

Incoming: Provide EC50, recorded with Plasmodium falciparum, of `COc1ccc(/C=C2\N=C(c3ccc(Cl)cc3)N(c3ccccc3)C2=O)cc1OC`
Outgoing: > 1150 nM

Incoming: Provide EC50, recorded with Plasmodium falciparum, of `Cc1cc(C)c(CSc2ncnc3[nH]cnc23)c(C)c1`
Outgoing: > 278 nM

Incoming: Provide EC50, recorded with Plasmodium falciparum, of `Cc1ccc([N+](=O)[O-])cc1-c1ccc(/C=C2/SC(=S)N(CC(=O)O)C2=O)o1`
Outgoing: > 940 nM

Incoming: Provide EC50, recorded with Plasmodium falciparum, of `COc1cccc(CCN2Cc3ccc(C(=O)NC(C)C)cc3N=C2c2cccnc2)c1`
Outgoing: > 42.3 nM

====

- measurementDescription: NOVARTIS: Cytotoxicity against human hepatocellular carcinoma cell line (Huh7)
- Type: toxicity, cell-based, Huh-7
- conditionSet: Huh7 cells (hepatocellular carcinoma cell line)
Would you kindly list CC50 for each of these compounds?

Incoming: Look up and report measured CC50 for this entry: CCN(CC)CCNC(=O)C1c2ccccc2C(=O)N(Cc2ccc(F)cc2)C1c1ccc(OC)cc1 (stereo not drawn)
Outgoing: 46.4 µM

Incoming: Look up and report measured CC50 for this entry: `CCCCN(CC(=O)Nc1cc(C(C)(C)C)nn1-c1ccc(Cl)cc1)C(=O)c1ccc(OC)cc1`
Outgoing: 5.08 µM

Incoming: Look up and report measured CC50 for this entry: COc1ccc(C2Nc3ccc([N+](=O)[O-])cc3C3C=CCC32)cc1[N+](=O)[O-] (stereo not drawn)
Outgoing: > 100 µM

Incoming: Look up and report measured CC50 for this entry: COc1cc(Br)c(C2CC(=O)Nc3ccc4ccccc4c32)cc1OC (stereo not drawn)
Outgoing: 34.4 µM

Incoming: Look up and report measured CC50 for this entry: `CCOc1ccc2[nH]c3c(NCCCN(C)C)ncnc3c2c1`
Outgoing: 26.6 µM

Incoming: Look up and report measured CC50 for this entry: CCOC(=O)C1=C(N)N(c2cccc([N+](=O)[O-])c2)C2=C(C(=O)CC(C)(C)C2)C1c1ccc(Cl)cc1 (stereo not drawn)
Outgoing: > 100 µM

Incoming: Look up and report measured CC50 for this entry: Cc1ccc(NC(=O)C2C3C=CC4(O3)C2C(=O)N(Cc2cccnc2)C4C(=O)NC2CCCCC2)cc1 (stereo not drawn)
Outgoing: > 10 µM

Incoming: Look up and report measured CC50 for this entry: NC(=O)C(Cc1ccccc1)Nc1ccc([N+](=O)[O-])cc1[N+](=O)[O-] (stereo not drawn)
Outgoing: > 10 µM

Incoming: Look up and report measured CC50 for this entry: `Cc1ccccc1C(=O)N(CC(=O)Nc1cc(C(C)(C)C)nn1-c1ccccc1Cl)C(C)C`
Outgoing: > 8.81 µM

Incoming: Look up and report measured CC50 for this entry: `C[N+](C)(C)c1ccc2cc(Br)c3ccccc3c2c1`
Outgoing: > 10 µM

Incoming: Look up and report measured CC50 for this entry: `Clc1ncnc2ncn(Cc3ccccc3)c12`
Outgoing: 58.1 µM

Incoming: Look up and report measured CC50 for this entry: `Cc1ccc(CN2CCc3nc(N4CCCCC4)sc3C2)s1`
Outgoing: > 10 µM

Incoming: Look up and report measured CC50 for this entry: CC1CCc2c(sc(NC(=O)c3ccccc3F)c2C(=O)NCc2ccccc2)C1 (stereo not drawn)
Outgoing: > 10 µM

Incoming: Look up and report measured CC50 for this entry: `Cc1cnc(Sc2ccccn2)c([N+](=O)[O-])c1`
Outgoing: 72.9 µM

Incoming: Look up and report measured CC50 for this entry: `COc1cc(OC)c(N(C)S(=O)(=O)c2cccc(C(=O)OCC(=O)Nc3ccccc3C(C)=O)c2)cc1Cl`
Outgoing: > 100 µM

Incoming: Look up and report measured CC50 for this entry: `CC(C)CSc1nc2sc3c(c2c(=O)n1-c1ccccc1)CCN(Cc1ccccc1)C3`
Outgoing: > 100 µM

Incoming: Look up and report measured CC50 for this entry: `CCN1CCN(C/C=C/c2ccccc2[N+](=O)[O-])CC1`
Outgoing: > 10 µM

Incoming: Look up and report measured CC50 for this entry: `Oc1c(CN2CCCCC2)ccc2ccccc12`
Outgoing: > 100 µM

Reference for the values: ChEMBL document CHEMBL1156829
